Cited source: PubChem BioAssay (NCATS)

- assay notes: Viability qHTS for spleen associated tyrosine kinase inhibitor (SYKi) naive MV4-11 cells (AID 1963823); note: nearly all actives have a fitted effect of over 40% in size
- experimental context: MV4-11 AML viability, CellTiter-Glo luminescence, 72 h; series mostly up to 45 µM
Inconclusive results are not listed. Calls of active or inactive are those of the source. Calls come from the whole dose curve; as a rule, active = well fitted cell-killing curve with a large enough effect; inconclusive = small, poorly fitted or top-dose-only effect, or effect the other way; inactive = no such curve, though single readings can be large or run the other way.
Answer with one of the outcomes y (active), n (inactive)

Outcome? Cc1ncc([N+](=O)[O-])n1CC(O)CN1CCOCC1 (stereo unspecified) n

Outcome? Cc1cccc(OCC(O)CNC(C)(C)C)c1C (stereo unspecified) n

Outcome? O=C(O)CCNC(=O)c1ccc(N=Nc2ccc(O)c(C(=O)O)c2)cc1 n

Outcome? CC(=O)OC[C@@]12C(=O)C[C@@H](C)[C@]3(C[C@@H](c4ccoc4)O[C@H]3OC(C)=O)[C@H]1CCC[C@]21CO1 n

Outcome? COC(=O)[C@@H](O)[C@H]1[C@@]2(C)CC3(O)[C@@H](C(=O)[C@H]2O)[C@]24O[C@]25CC(=O)O[C@@H](c2ccoc2)[C@]5(C)CCC4[C@]13C (stereo partly specified) n

Outcome? CN(C)C1CCN(C(=O)c2ccc(NC(=O)Nc3ccc(-c4nc(N5CCOCC5)nc(N5CCOCC5)n4)cc3)cc2)CC1 y

Outcome? FC(F)c1nc2ccccc2n1-c1nc(N2CCOCC2)nc(N2CCOCC2)n1 y

Outcome? CCn1cc(C(=O)O)c(=O)c2ccc(C)nc21 n

Outcome? CC1NC(=O)CNC(=O)C(C(C)C)NC(=O)C2CCCN2C(=O)C(C(C)C)NC(=O)C(Cc2c[nH]c3ccccc23)NC1=O (stereo unspecified) n

Outcome? C[C@@H](NC(=O)C(=O)c1c[nH]c2ccc([N+](=O)[O-])cc12)c1ccccc1 n

Outcome? COc1cccc([C@@H](C)NCCCc2ccccc2Cl)c1 y

Outcome? CN(CC(=O)N(Cc1ccc(C2CCCCC2)cc1)c1ccc(C(=O)O)cc1)S(=O)(=O)c1c(F)c(F)c(F)c(F)c1F y

Outcome? CNNCc1ccc(C(=O)NC(C)C)cc1 n

Outcome? O=C1NC(=O)[C@@H](c2cn3c4c(cccc24)CCC3)[C@@H]1c1c[nH]c2ccccc12 y

Outcome? COC(=O)C1=C(C)NC(C)=C(C(=O)OCCN(C)Cc2ccccc2)C1c1cccc([N+](=O)[O-])c1 (stereo unspecified) y

Outcome? CC(C)(O)[C@H]1CC[C@@](C)([C@H]2[C@@H](O)C[C@@]3(C)[C@@H]4C[C@H](O[C@@H]5O[C@H](CO)[C@@H](O)[C@H](O)[C@H]5O)[C@H]5C(C)(C)[C@@H](O[C@@H]6OC[C@@H](O)[C@H](O)[C@H]6O)CC[C@@]56C[C@@]46CC[C@]23C)O1 n

Outcome? Cc1ccc(S(=O)(=O)c2ccc([N+](=O)[O-])o2)cc1 y

Outcome? CCNc1nc2c(ncn2[C@H]2C[C@H](O)[C@@H](CO)O2)c(=O)[nH]1 n

Outcome? CC(C)NCC(O)COc1cccc2[nH]ccc12 (stereo unspecified) n

Outcome? CCC(C)(C)C1CCc2c(sc(NC(=O)c3ccc(Br)cc3)c2C#N)C1 (stereo unspecified) n

Outcome? CCOC(=O)C1=Cc2ccc(C(F)(F)C(F)(F)F)cc2N=C(N)C1 y

Outcome? O=C(O)c1cc(=O)[nH]c(=O)[nH]1 n

Outcome? Cc1n[nH]c(C)c1Cc1sc2c(c1C(=O)N1C[C@H](O)CO1)c(=O)n(C)c(=O)n2CC(C)C n

Outcome? COc1ccc(S(=O)(=O)Nc2nc(-c3cccc([N+](=O)[O-])c3)cs2)cc1OC n

Outcome? C[C@H](NC(=O)C(=O)Nc1ccccc1C(C)(C)C)C(=O)N[C@@H](CC(=O)O)C(=O)COc1c(F)c(F)cc(F)c1F y

Outcome? Nc1ccc(-c2cnc(N)c(-c3ccc(Cl)cc3)c2)cn1 y
